# measurement_target: Phosphodiesterase 1 (Rattus norvegicus, UniProt Q63421+Q9EPR9+Q01066)
# assay_info: Inhibition of rat brain cytosolic cGMP phosphodiesterase
result_type: I 50 (µM)
Write it as a number; the unit µM goes unstated.

Take a look at these entries with their results.
[
  {
    "compound": "CCCOc1ccccc1-c1nc2[nH]nnc2c(=O)[nH]1 [ZAPRINAST]",
    "result_type": "I 50",
    "units_label": "µM",
    "recorded_measurement": 93.3
  },
  {
    "compound": "CCOc1cc(OCC(=O)O)c2c(=O)c(OCC)c(-c3ccc(OCC)c(OCC)c3)oc2c1",
    "result_type": "I 50",
    "units_label": "µM",
    "recorded_measurement": 63
  },
  {
    "compound": "CCOc1cc(OCC)c2c(=O)c(OCCN(CC)CC)c(-c3ccc(OCC)c(OCC)c3)oc2c1",
    "result_type": "I 50",
    "units_label": "µM",
    "recorded_measurement": 47
  }
]

Now look at this entry.
Item O=c1c(OCCBr)c(-c2ccc(OCCBr)c(OCCBr)c2)oc2cc(OCCBr)cc(OCCBr)c12 has what recorded I 50?
10000

----------
# Organism: Rattus norvegicus
# assay_info: Relative inhibition of cAMP and cGMP hydrolysis by cytosolic phosphodiesterase
Parameter Ratio: see the listing below.

Would you please look over these solved cases?
[
  {
    "substance_smiles": "CCOC(=O)COc1cc(OCC)cc2oc(-c3ccc(OCC)c(OCC)c3)c(OCC)c(=O)c12",
    "recorded_measurement": "< 0.08"
  },
  {
    "substance_smiles": "CCOc1cc(OCC)c2c(=O)c(OCC)c(-c3ccc(OCC)c(OCC)c3)oc2c1",
    "recorded_measurement": "< 0.007"
  }
]

# evaluate next
State the recorded Ratio for this entry: CCOc1cc(OCC)c2c(=O)c(OCC(=O)O)c(-c3ccc(OCC)c(OCC)c3)oc2c1
< 0.01

----------
# measurement_target: Phosphodiesterase 1 (Rattus norvegicus, UniProt Q63421+Q9EPR9+Q01066)
# assay_info: Inhibition of rat brain cytosolic cGMP phosphodiesterase
Reported I 50 by item:

[
  {
    "molecule": "CCOC(=O)COc1cc(OCC)cc2oc(-c3ccc(OCC)c(OCC)c3)c(OCC)c(=O)c12",
    "I 50": "> 1000 µM"
  }
]

Need I 50, item CCOc1cc(OCC)c2c(=O)c(OCC(=O)O)c(-c3ccc(OCC)c(OCC)c3)oc2c1
> 1000 µM

----------
Documented I 50 across a set of compounds
# measurement_target: Phosphodiesterase 1 (Rattus norvegicus, UniProt Q63421+Q9EPR9+Q01066)
# assay_info: Inhibition of rat brain cytosolic cGMP phosphodiesterase

A selection of reference data follows.
[
  {
    "compound": "CCCCOc1cc(CC2CNC(=O)N2)ccc1OC (stereo not drawn) [RO-201724]",
    "I 50": "> 1 mM"
  },
  {
    "compound": "COc1cc(OC)c2c(=O)c(OC)c(-c3ccc(OC)c(OC)c3)oc2c1",
    "I 50": "> 1 mM"
  }
]

Then this compound:
# I 50 lookup, item CCOc1cc(OCC)c2c(=O)c(OCC)c(-c3ccc(OCC)c(OCC)c3)oc2c1
> 10 mM

Source listed as ChEMBL document CHEMBL1122175.
